system: 843782-103-R-J1-PDC complex spheroid viability; test: Anticancer human tumor 843782-103-R-J1-PDC patient-derived lung adenocarcinoma cell line growth inhibition [RAS]; details: compound 0.0949 µM; active = viability on the fitted dose curve at most 10% of control; inactive = the rest
Form entry, call: pick from active, inactive

Q) Which outcome was entered for the compound CCn1c(-c2cccnc2C(C)OC)c2c3cc(ccc31)N1CCOC(CC(NC(=O)C(C(C)C)N(C)C(=O)C3(F)CCN(C(=O)C#CC(C)(C)N(C)C)CC3)C(=O)N3CCCC(N3)C(=O)OCC(C)(C)C2)C1 (centres undefined) in this test?
A) inactive

Q) Which outcome was entered for the compound CC1(C)CCC(Nc2ncc(C(F)(F)F)c(-c3c[nH]c4c(P(C)(C)=O)c(C#N)ccc34)n2)CN1 (centres undefined) in this test?
A) inactive

Q) Which outcome was entered for the compound CCn1c(-c2cc(N3CCN(C)CC3)cnc2C(C)OC)c2c3cc(ccc31)-c1csc(n1)CC(NC(=O)C1CC1C)C(=O)N1CCCC(N1)C(=O)OCC(C)(C)C2 (centres undefined) in this test?
A) inactive

Q) Which outcome was entered for the compound `CCc1c2c(nc3ccc(O)cc13)-c1cc3c(c(=O)n1C2)COC(=O)[C@]3(O)CC` in this test?
A) active

----------
system: 843782-103-R-J1-PDC complex spheroid viability; assay: Anticancer human tumor 843782-103-R-J1-PDC cell line growth inhibition [RAS]; settings: second compound 0.00949 µM; first compound 1 µM; active means viability on the fitted dose curve at most 10% of control; inactive means the rest;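 note: viability read after seven days of compound exposure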
Form entry, call: pick from active, inactive

Q) Which outcome was entered for the compound CC(=O)OC12COC1CC(O)C1(C)C(=O)C(O)C3=C(C)C(OC(=O)C(O)C(NC(=O)OC(C)(C)C)c4ccccc4)CC(O)(C(OC(=O)c4ccccc4)C21)C3(C)C (centres undefined) + CCn1c(-c2cc(N3CCN(C)CC3)cnc2C(C)OC)c2c3cc(ccc31)-c1csc(n1)CC(NC(=O)C1CC1C)C(=O)N1CCCC(N1)C(=O)OCC(C)(C)C2 in this test?
A) active

Q) Which outcome was entered for the compound Cc1nc(N2CCC3(CC2)COC(C)C3N)c(CO)nc1Sc1ccnc(N)c1Cl (centres undefined) + CCn1c(-c2cccnc2C(C)OC)c2c3cc(ccc31)N1CCOC(CC(NC(=O)C(C(C)C)N(C)C(=O)C3(F)CCN(C(=O)C#CC(C)(C)N(C)C)CC3)C(=O)N3CCCC(N3)C(=O)OCC(C)(C)C2)C1 in this test?
A) inactive

Q) Which outcome was entered for the compound CCC(CC)c1cc(NC2CCC(N)C2)n2nccc2n1 (centres undefined) + CCn1c(-c2cc(N3CCN(C)CC3)cnc2C(C)OC)c2c3cc(ccc31)-c1csc(n1)CC(NC(=O)C1CC1C)C(=O)N1CCCC(N1)C(=O)OCC(C)(C)C2 in this test?
A) inactive

Q) Which outcome was entered for the compound C=CC(=O)Nc1cc(Nc2nccc(-c3cn(C)c4ccccc34)n2)c(OC)cc1N(C)CCN(C)C + CCn1c(-c2cc(N3CCN(C)CC3)cnc2C(C)OC)c2c3cc(ccc31)-c1csc(n1)CC(NC(=O)C1CC1C)C(=O)N1CCCC(N1)C(=O)OCC(C)(C)C2 in this test?
A) inactive

----------
test system: 843782-103-R-J1-PDC complex spheroid viability; experiment: Anticancer human tumor 843782-103-R-J1-PDC cell line growth inhibition [RAS]; details: second compound 1 µM; first compound 1 µM; active compounds read low;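 note: viability read after seven days of compound exposure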
attribute measured: viability, T/C (%)
Answer with a number only, understood to be in %.

Q) Query (molecule): NC1c2ccccc2OC12CCN(c1cnc3c(N4CCCc5ncccc54)n[nH]c3n1)CC2 (stereo not given) + C=CC(=O)N1CCN(c2nc(OCC3CCCN3C)nc3c(F)c(-c4nc(N)cc(C)c4C(F)(F)F)c(Cl)cc23)C(C)C1 ; field requested: viability, T/C
A) 25.4

Q) Query (molecule): NC1c2ccccc2OC12CCN(c1cnc3c(N4CCCc5ncccc54)n[nH]c3n1)CC2 (stereo not given) + C#Cc1c(F)ccc2cc(O)cc(-c3ncc4c(N5CC6CCC(C5)N6)nc(OCC56CCCN5CC(F)C6)nc4c3F)c12 ; field requested: viability, T/C
A) 26.8

Q) Query (molecule): Nc1ccn(C2OC(CO)C(O)C2(F)F)c(=O)n1 (stereo not given) + C=CC(=O)N1CCN(c2nc(OCC3CCCN3C)nc3c(F)c(-c4nc(N)cc(C)c4C(F)(F)F)c(Cl)cc23)C(C)C1 ; field requested: viability, T/C
A) 1.67

Q) Query (molecule): CCN1CCN(Cc2ccc(Nc3ncc(F)c(-c4cc(F)c5nc(C)n(C(C)C)c5c4)n3)nc2)CC1 + C#Cc1c(F)ccc2cc(O)cc(-c3ncc4c(N5CC6CCC(C5)N6)nc(OCC56CCCN5CC(F)C6)nc4c3F)c12 ; field requested: viability, T/C
A) 46.9

Q) Query (molecule): CC(C)NCC(C(=O)N1CCN(c2ncnc3c2C(C)CC3O)CC1)c1ccc(Cl)cc1 (stereo not given) + C=CC(=O)N1CCN(c2nc(OCC3CCCN3C)nc3c(F)c(-c4nc(N)cc(C)c4C(F)(F)F)c(Cl)cc23)C(C)C1 ; field requested: viability, T/C
A) 47.9

----------
tested on: 843782-103-R-J1-PDC complex spheroid viability; assay: Anticancer human tumor 843782-103-R-J1-PDC cell line growth inhibition [RAS]; conditions: second compound 10 µM; first compound 0.1 µM; active compounds read low;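 note: viability read after seven days of compound exposure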
attribute measured: viability, T/C (%)
Answer with a number only, understood to be in %.

Q) Query (compound): C[C@@H](NC(=O)c1ncnc(N)c1Cl)c1ncc(C(=O)Nc2cc(C(F)(F)F)c(Cl)cn2)s1 + C#Cc1c(F)ccc2cc(O)cc(-c3ncc4c(N5CC6CCC(C5)N6)nc(OCC56CCCN5CC(F)C6)nc4c3F)c12 ; field requested: viability, T/C
A) 84.3

Q) Query (compound): CCN1CCN(Cc2ccc(Nc3ncc(F)c(-c4cc(F)c5nc(C)n(C(C)C)c5c4)n3)nc2)CC1 + C#Cc1c(F)ccc2cc(O)cc(-c3ncc4c(N5CC6CCC(C5)N6)nc(OCC56CCCN5CC(F)C6)nc4c3F)c12 ; field requested: viability, T/C
A) 46.2

Q) Query (compound): O=C(c1ccc(F)c(F)c1Nc1ccc(I)cc1F)N1CC(O)([C@@H]2CCCCN2)C1 + C#Cc1c(F)ccc2cc(O)cc(-c3ncc4c(N5CC6CCC(C5)N6)nc(OCC56CCCN5CC(F)C6)nc4c3F)c12 ; field requested: viability, T/C
A) 26.9

Q) Query (compound): Cc1nc(N2CCC3(CC2)COC(C)C3N)c(CO)nc1Sc1ccnc(N)c1Cl (stereo not given) + C#Cc1c(F)ccc2cc(O)cc(-c3ncc4c(N5CC6CCC(C5)N6)nc(OCC56CCCN5CC(F)C6)nc4c3F)c12 ; field requested: viability, T/C
A) 32.2

Q) Query (compound): NC1c2ccccc2OC12CCN(c1cnc3c(N4CCCc5ncccc54)n[nH]c3n1)CC2 (stereo not given) + C#Cc1c(F)ccc2cc(O)cc(-c3ncc4c(N5CC6CCC(C5)N6)nc(OCC56CCCN5CC(F)C6)nc4c3F)c12 ; field requested: viability, T/C
A) 16.4

----------
tested on: 843782-103-R-J1-PDC complex spheroid viability; assay: Anticancer human tumor 843782-103-R-J1-PDC cell line growth inhibition [RAS]; details: second compound 0.03 µM; first compound 0.0316 µM; active compounds read low;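 note: viability read after seven days of compound exposure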
Rule: measured viability, T/C below 30% gets 1 (yes); anything equal to or greater than 30% gets 0 (no).

Q) Please determine if O=C(c1ccc(F)c(F)c1Nc1ccc(I)cc1F)N1CC(O)([C@@H]2CCCCN2)C1 + CCn1c(-c2cccnc2C(C)OC)c2c3cc(ccc31)N1CCOC(CC(NC(=O)C(C(C)C)N(C)C(=O)C3(F)CCN(C(=O)C#CC(C)(C)N(C)C)CC3)C(=O)N3CCCC(N3)C(=O)OCC(C)(C)C2)C1 is below 30% in terms of viability, T/C.
A) 0 (no)

Q) Please determine if C=CC(=O)N1CCN(c2nc(OCC3CCCN3C)nc3c(F)c(-c4nc(N)cc(C)c4C(F)(F)F)c(Cl)cc23)C(C)C1 (stereo not given) + CCn1c(-c2cc(N3CCN(C)CC3)cnc2C(C)OC)c2c3cc(ccc31)-c1csc(n1)CC(NC(=O)C1CC1C)C(=O)N1CCCC(N1)C(=O)OCC(C)(C)C2 is below 30% in terms of viability, T/C.
A) 1 (yes)

Q) Please determine if CC(C)NCC(C(=O)N1CCN(c2ncnc3c2C(C)CC3O)CC1)c1ccc(Cl)cc1 (stereo not given) + CCn1c(-c2cc(N3CCN(C)CC3)cnc2C(C)OC)c2c3cc(ccc31)-c1csc(n1)CC(NC(=O)C1CC1C)C(=O)N1CCCC(N1)C(=O)OCC(C)(C)C2 is below 30% in terms of viability, T/C.
A) 1 (yes)

Q) Please determine if C[C@@H](NC(=O)c1ncnc(N)c1Cl)c1ncc(C(=O)Nc2cc(C(F)(F)F)c(Cl)cn2)s1 + CCn1c(-c2cc(N3CCN(C)CC3)cnc2C(C)OC)c2c3cc(ccc31)-c1csc(n1)CC(NC(=O)C1CC1C)C(=O)N1CCCC(N1)C(=O)OCC(C)(C)C2 is below 30% in terms of viability, T/C.
A) 1 (yes)

Q) Please determine if CCC(CC)c1cc(NC2CCC(N)C2)n2nccc2n1 (stereo not given) + CCn1c(-c2cc(N3CCN(C)CC3)cnc2C(C)OC)c2c3cc(ccc31)-c1csc(n1)CC(NC(=O)C1CC1C)C(=O)N1CCCC(N1)C(=O)OCC(C)(C)C2 is below 30% in terms of viability, T/C.
A) 1 (yes)

Q) Please determine if Cc1nc(N2CCC3(CC2)COC(C)C3N)c(CO)nc1Sc1ccnc(N)c1Cl (stereo not given) + CCn1c(-c2cccnc2C(C)OC)c2c3cc(ccc31)N1CCOC(CC(NC(=O)C(C(C)C)N(C)C(=O)C3(F)CCN(C(=O)C#CC(C)(C)N(C)C)CC3)C(=O)N3CCCC(N3)C(=O)OCC(C)(C)C2)C1 is below 30% in terms of viability, T/C.
A) 0 (no)

Q) Please determine if Nc1ccn(C2OC(CO)C(O)C2(F)F)c(=O)n1 (stereo not given) + CCn1c(-c2cccnc2C(C)OC)c2c3cc(ccc31)N1CCOC(CC(NC(=O)C(C(C)C)N(C)C(=O)C3(F)CCN(C(=O)C#CC(C)(C)N(C)C)CC3)C(=O)N3CCCC(N3)C(=O)OCC(C)(C)C2)C1 is below 30% in terms of viability, T/C.
A) 1 (yes)

Q) Please determine if CCN1CCN(Cc2ccc(Nc3ncc(F)c(-c4cc(F)c5nc(C)n(C(C)C)c5c4)n3)nc2)CC1 + CCn1c(-c2cc(N3CCN(C)CC3)cnc2C(C)OC)c2c3cc(ccc31)-c1csc(n1)CC(NC(=O)C1CC1C)C(=O)N1CCCC(N1)C(=O)OCC(C)(C)C2 is below 30% in terms of viability, T/C.
A) 1 (yes)

Q) Please determine if C=CC(=O)N1CCN(c2nc(OCC3CCCN3C)nc3c(F)c(-c4nc(N)cc(C)c4C(F)(F)F)c(Cl)cc23)C(C)C1 (stereo not given) + CCn1c(-c2cccnc2C(C)OC)c2c3cc(ccc31)N1CCOC(CC(NC(=O)C(C(C)C)N(C)C(=O)C3(F)CCN(C(=O)C#CC(C)(C)N(C)C)CC3)C(=O)N3CCCC(N3)C(=O)OCC(C)(C)C2)C1 is below 30% in terms of viability, T/C.
A) 0 (no)

Q) Please determine if CCN1CCN(Cc2ccc(Nc3ncc(F)c(-c4cc(F)c5nc(C)n(C(C)C)c5c4)n3)nc2)CC1 + CCn1c(-c2cccnc2C(C)OC)c2c3cc(ccc31)N1CCOC(CC(NC(=O)C(C(C)C)N(C)C(=O)C3(F)CCN(C(=O)C#CC(C)(C)N(C)C)CC3)C(=O)N3CCCC(N3)C(=O)OCC(C)(C)C2)C1 is below 30% in terms of viability, T/C.
A) 0 (no)

Q) Please determine if C=CC(=O)Nc1cc(Nc2nccc(-c3cn(C)c4ccccc34)n2)c(OC)cc1N(C)CCN(C)C + CCn1c(-c2cc(N3CCN(C)CC3)cnc2C(C)OC)c2c3cc(ccc31)-c1csc(n1)CC(NC(=O)C1CC1C)C(=O)N1CCCC(N1)C(=O)OCC(C)(C)C2 is below 30% in terms of viability, T/C.
A) 1 (yes)

Q) Please determine if C[C@@H](NC(=O)c1ncnc(N)c1Cl)c1ncc(C(=O)Nc2cc(C(F)(F)F)c(Cl)cn2)s1 + CCn1c(-c2cccnc2C(C)OC)c2c3cc(ccc31)N1CCOC(CC(NC(=O)C(C(C)C)N(C)C(=O)C3(F)CCN(C(=O)C#CC(C)(C)N(C)C)CC3)C(=O)N3CCCC(N3)C(=O)OCC(C)(C)C2)C1 is below 30% in terms of viability, T/C.
A) 0 (no)

Q) Please determine if Cc1nc(N2CCC3(CC2)COC(C)C3N)c(CO)nc1Sc1ccnc(N)c1Cl (stereo not given) + CCn1c(-c2cc(N3CCN(C)CC3)cnc2C(C)OC)c2c3cc(ccc31)-c1csc(n1)CC(NC(=O)C1CC1C)C(=O)N1CCCC(N1)C(=O)OCC(C)(C)C2 is below 30% in terms of viability, T/C.
A) 1 (yes)

Q) Please determine if CC(C)n1nc(-c2ccc3oc(N)nc3c2)c2c(N)ncnc21 + CCn1c(-c2cccnc2C(C)OC)c2c3cc(ccc31)N1CCOC(CC(NC(=O)C(C(C)C)N(C)C(=O)C3(F)CCN(C(=O)C#CC(C)(C)N(C)C)CC3)C(=O)N3CCCC(N3)C(=O)OCC(C)(C)C2)C1 is below 30% in terms of viability, T/C.
A) 1 (yes)

Q) Please determine if C=CC(=O)Nc1cc(Nc2nccc(-c3cn(C)c4ccccc34)n2)c(OC)cc1N(C)CCN(C)C + CCn1c(-c2cccnc2C(C)OC)c2c3cc(ccc31)N1CCOC(CC(NC(=O)C(C(C)C)N(C)C(=O)C3(F)CCN(C(=O)C#CC(C)(C)N(C)C)CC3)C(=O)N3CCCC(N3)C(=O)OCC(C)(C)C2)C1 is below 30% in terms of viability, T/C.
A) 0 (no)
